- System: BXPC-3
- testSummary: Cytotoxicity against human BxPC3 cells after 48 hrs by MTT assay
- Format: functional, cell-based
- conditionContext: BXPC-3, 48 h
Threshold-based label: IC50 under 50 µM gives yes (1), IC50 not under 50 µM gives no (0).

| structureNotation | testTarget | classLabel |
| --- | --- | --- |
| O=C(/C=C/c1ccc2c(c1)OCO2)c1c2[nH]c3ccccc3c2cc[n+]1Cc1ccccc1.[Br-] | BXPC-3 | no (0) |
| CCCC[n+]1ccc2c([nH]c3ccccc32)c1C(=O)/C=C/c1ccc2c(c1)OCO2.[Br-] | BXPC-3 | no (0) |
| COc1cccc2c1C(=O)c1c(O)c3c(c(O)c1C2=O)C[C@@](O)(C(=O)CO)C[C@@H]3O[C@H]1C[C@H](N)[C@H](O)[C@H](C)O1 | BXPC-3 | yes (1) |
| C#CC[n+]1ccc2c([nH]c3ccccc32)c1C(=O)/C=C/c1ccc2c(c1)OCO2.[Br-] | BXPC-3 | yes (1) |
| C#CC[n+]1ccc2c([nH]c3ccccc32)c1C(=O)/C=C/c1cc(OC)c(OC)c(OC)c1.[Br-] | BXPC-3 | no (0) |
| COc1cc(/C=C/C(=O)c2c3[nH]c4ccccc4c3cc[n+]2Cc2ccccc2)cc(OC)c1OC.[Br-] | BXPC-3 | yes (1) |
| CCCC[n+]1ccc2c([nH]c3ccccc32)c1C(=O)/C=C/c1cc(OC)c(OC)c(OC)c1.[Br-] | BXPC-3 | yes (1) |
| COc1cc(/C=C/C(=O)c2nccc3c2[nH]c2ccccc23)cc(OC)c1OC | BXPC-3 | no (0) |
| O=C(/C=C/c1ccc2c(c1)OCO2)c1nccc2c1[nH]c1ccccc12 | BXPC-3 | no (0) |
| Cc1ccc(/C=C/C(=O)c2nccc3c2[nH]c2ccccc23)cc1 | BXPC-3 | no (0) |
| O=C(/C=C/c1ccccc1)c1nccc2c1[nH]c1ccccc12 | BXPC-3 | no (0) |
| COc1ccc(/C=C/C(=O)c2nccc3c2[nH]c2ccccc23)cc1 | BXPC-3 | no (0) |
| C#CC[n+]1ccc2c([nH]c3ccccc32)c1C(=O)/C=C/c1ccc(OC)cc1.[Br-] | BXPC-3 | no (0) |

----------
- System: Staphylococcus aureus
- testSummary: Antibacterial activity against Staphylococcus aureus MTCC 96 assessed as zone of inhibition measured after 18 hrs by disc diffusion method
- Format: functional
In this section we review reported inhibition zone (IZ) values for a set of compounds.

| structureNotation | inhibition zone (IZ) |
| --- | --- |
| Cc1ccc(/C=C/C(=O)c2nccc3c2[nH]c2ccccc23)cc1 | 10 mm |
| COc1ccc(/C=C/C(=O)c2c3[nH]c4ccccc4c3cc[n+]2Cc2ccccc2)cc1.[Br-] | 15 mm |
| CCCC[n+]1ccc2c([nH]c3ccccc32)c1C(=O)/C=C/c1cc(OC)c(OC)c(OC)c1.[Br-] | 10 mm |
| CCCC[n+]1ccc2c([nH]c3ccccc32)c1C(=O)/C=C/c1ccc(OC)cc1.[Br-] | 9 mm |
| C#CC[n+]1ccc2c([nH]c3ccccc32)c1C(=O)/C=C/c1ccc2c(c1)OCO2.[Br-] | 9 mm |

----------
- Test system: HEK-293T
- testSummary: Cytotoxicity against human HEK293T cells after 48 hrs by MTT assay
- Type: cell-based
pIC50: −log10 of the molar value.
outcomeMeasure: pIC50

| structureNotation | reportedResult |
| --- | --- |
| COc1ccc(/C=C/C(=O)c2nccc3c2[nH]c2ccccc23)cc1 | < 4.00 |
| C#CC[n+]1ccc2c([nH]c3ccccc32)c1C(=O)/C=C/c1ccc(OC)cc1.[Br-] | < 4.00 |
| CCCC[n+]1ccc2c([nH]c3ccccc32)c1C(=O)/C=C/c1ccc2c(c1)OCO2.[Br-] | < 4.00 |
